experimentalDetails: recombinant barcode read abundance after kanamycin selection (control-corrected) (log10(CPM+1)); higher = more efficient recombination; sequences stand for … in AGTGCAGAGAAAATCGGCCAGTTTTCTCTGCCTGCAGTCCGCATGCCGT…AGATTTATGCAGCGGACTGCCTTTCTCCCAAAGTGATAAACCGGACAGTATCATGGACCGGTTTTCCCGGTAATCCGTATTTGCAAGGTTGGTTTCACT; site = the 11-nt target;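 further: IS621 recombinase and bridge RNA in Escherichia coli cells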
Could you label it Criterion met if measured recombinant barcode read abundance (log10) is 0.6 or higher, and Criterion not met otherwise?

{"columns": ["residueString", "category"],
 "data": [
  ["TGGAGCCCTTGGGTTCTAACCTGTTGCTT (site TGGAGCCCTAA)", "Criterion not met"],
  ["TGGCCTTCTTGGGTTCTAACCTGTTGCCT (site TCGCCTTCTAG)", "Criterion not met"],
  ["GTTCGAGCTTGGGTTCTAACCTGTTGCCT (site GTTAGAGCTAG)", "Criterion not met"],
  ["TGGCAATCTTGGGTTCTAACCTGTTGCCT (site ACCTCGGCTCA)", "Criterion not met"],
  ["ACACCGTCTTGGGTTCTAACCTGTTGCCT (site ACACCGTCTAG)", "Criterion met"],
  ["CGGGTGCCTTGGGTTCTAACCTGTTGCCT (site CGGGTGCCTAG)", "Criterion met"],
  ["GTCGCTACTTGGGTTCTAACCTGTTGCCG (site GTCGCTACTCG)", "Criterion met"],
  ["ACGAAGGCTTGGGTTCTAACCTGTTGCCT (site ACGAAGGCTCG)", "Criterion not met"],
  ["TAGCCCTCTTGGGTTCTAACCTGTTGCCG (site TAGCCCTCTCG)", "Criterion met"]
]}
